Data provenance is patent US20070142417A1.

Molecular target: UniProt:O14920
Sequence (O14920 1-756): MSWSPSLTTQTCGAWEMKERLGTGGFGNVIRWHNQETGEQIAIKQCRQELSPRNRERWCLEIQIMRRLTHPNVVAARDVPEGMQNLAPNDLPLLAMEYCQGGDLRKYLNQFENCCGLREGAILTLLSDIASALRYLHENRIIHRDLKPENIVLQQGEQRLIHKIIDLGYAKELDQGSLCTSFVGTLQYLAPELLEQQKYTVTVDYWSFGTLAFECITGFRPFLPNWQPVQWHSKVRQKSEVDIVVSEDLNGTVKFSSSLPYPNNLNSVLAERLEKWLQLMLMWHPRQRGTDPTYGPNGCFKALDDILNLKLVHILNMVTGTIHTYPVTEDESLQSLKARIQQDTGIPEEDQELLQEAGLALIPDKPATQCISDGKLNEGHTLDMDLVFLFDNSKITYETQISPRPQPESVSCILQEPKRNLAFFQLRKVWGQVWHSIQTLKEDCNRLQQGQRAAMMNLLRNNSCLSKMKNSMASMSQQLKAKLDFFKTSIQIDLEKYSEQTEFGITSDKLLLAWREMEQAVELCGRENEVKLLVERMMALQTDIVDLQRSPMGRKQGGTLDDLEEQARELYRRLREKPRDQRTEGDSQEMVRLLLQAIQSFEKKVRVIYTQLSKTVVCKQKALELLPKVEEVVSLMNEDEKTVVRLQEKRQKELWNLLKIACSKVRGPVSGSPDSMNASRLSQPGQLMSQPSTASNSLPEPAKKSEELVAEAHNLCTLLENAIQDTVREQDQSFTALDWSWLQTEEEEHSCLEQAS
Test: IKK-Enzyme ELISA
Type: biochemical
Details: read-out: IC50 (nM) 1 mM ATP; 1 mM ATP
METRIC: IC50 (nM)
Answer with a number only, understood to be in nM.

**Q:** // returns reported IC50 for input CNc1nccc(-c2cc3cc(C(=O)N[C@@H](CN(c4ccccc4)c4ccccn4)C(=O)OC)ccc3[nH]2)n1 [(C)]
**A:** 378

**Q:** // returns reported IC50 for input CNc1nccc(-c2cc3cc(C(=O)N[C@@H](CN(c4ccccc4)c4ccccn4)C(=O)NOC)ccc3[nH]2)n1 [Compound (B)]
**A:** 56.4

**Q:** // returns reported IC50 for input CNc1nccc(-c2cc3cc(C(=O)N[C@@H](CN(c4ccccc4)c4ncccn4)C(=O)O)ccc3[nH]2)n1 [(D)]
**A:** 3.8

**Q:** // returns reported IC50 for input CNc1nccc(-c2cc3cc(C(=O)N[C@@H](CN(c4ccccc4)c4ccccn4)C(=O)O)ccc3[nH]2)n1 [Compound (A)]
**A:** 0.08
